The values you see were collected from ChEMBL document CHEMBL1201862.

Test system: MDA-MB-231
experimentalProtocol: NCI tumour cell line growth inhibition, 48 h
The source made the active and inactive calls. No stated cut-off is given here; in the data, active = GI50 up to about 1.1 µM and inactive = higher.
measurementName: GI50

compound	GI50
COc1cc([C@@H]2c3cc4c(cc3[C@@H](c3c(O)cc(O)c5c3O[C@H](c3ccc(O)c(O)c3)[C@H](OC(=O)c3cc(O)c(O)c(O)c3)C5)[C@H]3COC(=O)[C@H]23)OCO4)cc(OC)c1OC	4.52 µM (inactive)

Any idea what GI50 came out for "Brc1cccc(Nc2nc(-c3cccs3)nc3ccc(Br)cc23)c1" on MDA-MB-231?
20.7 µM (inactive)

Any idea what GI50 came out for "N#Cc1c2ccc([N+](=O)[O-])cc2c(=O)n2c1sc1ccccc12" on MDA-MB-231?
17.2 µM (inactive)

Any idea what GI50 came out for O=C1CSC(c2ccc(Cl)cc2)N1c1ccc(Oc2ccc(Cl)cc2)c(Cl)c1 (stereo not given) on MDA-MB-231?
16.4 µM (inactive)

Any idea what GI50 came out for "O=S(=O)(O)c1ccc2c(/N=N/c3ccccc3)c(O)c(S(=O)(=O)O)cc2c1" on MDA-MB-231?
> 100 µM (inactive)

Any idea what GI50 came out for "CC1(C)C[C@H]2C3=CC[C@@H]4[C@@]5(C)CC[C@H](O)C(C)(C)[C@@H]5CC[C@@]4(C)[C@]3(C)C[C@@H](O)[C@@]23C[C@@H]1OC3=O" on MDA-MB-231?
> 100 µM (inactive)

Any idea what GI50 came out for "Cc1cc(S(=O)(=O)Nc2nnc3ccccn23)c(S)cc1Cl" on MDA-MB-231?
> 100 µM (inactive)

Any idea what GI50 came out for CC1=NN(c2nc(N)nc(C(C#N)C(=O)c3cc4c(cc3Cl)Sc3nccn3S4(=O)=O)n2)C(C)(C)C1 (stereo not given) on MDA-MB-231?
15.6 µM (inactive)

Any idea what GI50 came out for "c1cc(CSP234N5CCN2CCN3CCN4CC5)ccc1CSP123N4CCN1CCN2CCN3CC4" on MDA-MB-231?
62.7 µM (inactive)

Any idea what GI50 came out for "C[C@H](c1ccccc1)N1C(=O)[C@@H](O)[C@H]1[C@H](CO)OCc1ccccc1" on MDA-MB-231?
> 100 µM (inactive)

Any idea what GI50 came out for "CCOC(=O)c1ccc(/N=c2/[nH]c3ccccc3s/c2=N/c2ccc(C(=O)OCC)cc2)cc1" on MDA-MB-231?
> 100 µM (inactive)

Any idea what GI50 came out for "c1ccc2c(c1)ccc1ncccc12" on MDA-MB-231?
> 100 µM (inactive)

Any idea what GI50 came out for CN1CCOC(c2ccc(Cl)cc2)O1 (stereo not given) on MDA-MB-231?
> 100 µM (inactive)

Any idea what GI50 came out for "O=C1/C(=C/c2ccccc2)NC(=S)N1CN1CCCCC1" on MDA-MB-231?
> 100 µM (inactive)

Any idea what GI50 came out for "NC(=O)c1sc2nc3ccccc3n2c1N" on MDA-MB-231?
24.9 µM (inactive)

Any idea what GI50 came out for COc1nc2ccc(COc3ccc(C(=O)NC(CCC(=O)O)C(=O)O)cc3)cc2nc1OC (stereo not given) on MDA-MB-231?
> 10 µM (inactive)

Any idea what GI50 came out for "CCOC(=O)c1cc2c3c(cc(OC)c2[nH]1)N(C(=O)OCC)CC3" on MDA-MB-231?
> 100 µM (inactive)

Any idea what GI50 came out for CC(O)C1(CNc2cc(Cl)nc(N)n2)CCCCC1 (stereo not given) on MDA-MB-231?
> 100 µM (inactive)

Any idea what GI50 came out for "COc1ccc(-c2oc3ccc(C)cc3c(=O)c2O)cc1" on MDA-MB-231?
71.4 µM (inactive)

Any idea what GI50 came out for "O=C(NN=C1CCCCC1)NN=C1CCCCC1" on MDA-MB-231?
> 100 µM (inactive)

====

GI50 values for the compounds below.
Tested on: K562
experimentalProtocol: NCI tumour cell line growth inhibition, 48 h
Calls of active or inactive are those of the source. Cut-off read from the data, not from the text of the source: active = GI50 up to about 1.1 µM and inactive = higher.

Observe how each entry below is paired with its result.
compound	target	GI50
Cc1ncc(CI)c(CI)c1O	K562	5.85 µM (inactive)
N#CC(C#N)=c1ccc(=C2N3CCCC3CN2C23CC4CC(CC(C4)C2)C3)cc1 (stereo unspecified)	K562	> 100 µM (inactive)
Cn1nc(-c2ccccc2)c(C(=O)/C=C/c2ccc(Cl)cc2)c(N2CCOCC2)c1=O	K562	2.79 µM (inactive)
COc1cc(C2SCC(=O)N2c2cc(Cl)c(Cl)cc2Cl)cc(OC)c1OC (stereo unspecified)	K562	42 µM (inactive)
Cc1cccc2c1Oc1ccccc1C2NC(=O)c1ccc([N+](=O)[O-])cc1 (stereo unspecified)	K562	> 100 µM (inactive)

Please give the measured GI50 for this compound: "COc1ccccc1-c1c(C#N)c(N)[nH]c(=S)c1C#N"
14.4 µM (inactive)

Please give the measured GI50 for this compound: "c1ccc2cc3[s+]snc3cc2c1"
> 100 µM (inactive)

Please give the measured GI50 for this compound: "O=C1N/C(=N/N=C\c2ccccc2)N/C1=C/c1ccc(Cl)cc1"
34 µM (inactive)

Please give the measured GI50 for this compound: "CSc1nc(C)c2c(n1)SCC2"
> 10 µM (inactive)

Please give the measured GI50 for this compound: "Brc1cccc(Nc2nc(-c3cccs3)nc3ccc(Br)cc23)c1"
38.2 µM (inactive)

Please give the measured GI50 for this compound: "OC(Cc1ccc2ccccc2n1)(C(F)(F)Cl)C(F)(F)Cl"
> 10 µM (inactive)

====

Tested on: SK-MEL-2
experimentalProtocol: NCI tumour cell line growth inhibition, 48 h
Activity calls are given as the source filed them. Rule as the data show it: active = GI50 up to about 1.1 µM and inactive = higher.
GI50 values for the compounds below.

Observe how each entry below is paired with its result.
compound	GI50
N#CC(C(=O)CCCC(=O)Nc1ccc(Cl)cc1Cl)c1ccc(Cl)cc1 (stereo not drawn)	> 100 µM (inactive)
[N-]=[N+]=Nc1ccc2c(c1)Sc1ccccc1N2CCCCN1CCN(Cc2ccc(C(=O)c3ccccc3)cc2)CC1	2.65 µM (inactive)
O=C(c1cc(Cl)cc(Cl)c1)N(C(=O)N1CCN(c2ccccc2)CC1)c1ccccc1	24.8 µM (inactive)
Brc1cccc(Nc2nc(-c3cccs3)nc3ccc(Br)cc23)c1	32.1 µM (inactive)
O=C1CSC(c2ccc(Cl)cc2)N1c1ccc(Oc2ccc(Cl)cc2)c(Cl)c1 (stereo not drawn)	16 µM (inactive)

Please give the measured GI50 for this compound: C#CC1(O)CCC2C3CCc4cc(Oc5nc(F)nc(-c6c7ccccc7c7n6CCS7)n5)ccc4C3CC[C@@]21C (stereo partly drawn)
5.62 µM (inactive)

Please give the measured GI50 for this compound: CC(C)CCCC(C)[C@H]1CCC2[C@@H]3CCC4Nc5nocc5C[C@]4(C)C3CC[C@@]21C (stereo partly drawn)
20.7 µM (inactive)

Please give the measured GI50 for this compound: Cc1ccc(N2C(N)=C(C#N)C(C#N)(C#N)C2c2ccccc2)cc1 (stereo not drawn)
13.6 µM (inactive)

====

System: ACHN
experimentalProtocol: NCI tumour cell line growth inhibition, 48 h
Active and inactive are the calls of the source. No stated cut-off is given here; in the data, active = GI50 up to about 1.1 µM and inactive = higher.
GI50 values for the compounds below.

Any idea what GI50 came out for CC(C)(C)C1CCC2c3c([nH]c4ccccc34)C3C(=O)N(c4cc(Br)cc(Br)c4)C(=O)C3C2C1 (centres undefined) on ACHN?
20 µM (inactive)

Any idea what GI50 came out for "Nc1c(Cl)ncnc1N[C@@H]1C[C@H]1CO" on ACHN?
> 100 µM (inactive)

Any idea what GI50 came out for "O=C1C=C(O)C(=O)c2c(O)ccc(O)c21" on ACHN?
> 100 µM (inactive)

Any idea what GI50 came out for O=C(CC1Sc2ccccc2NC1=O)Nc1ccc([N+](=O)[O-])cc1[N+](=O)[O-] (centres undefined) on ACHN?
15.3 µM (inactive)

Any idea what GI50 came out for "N#Cc1c2ccc([N+](=O)[O-])cc2c(=O)n2c1sc1ccccc12" on ACHN?
32.4 µM (inactive)

Any idea what GI50 came out for COC(=O)C(Cc1c[nH]c2ccccc12)NP(=O)(O)OCC1OC(n2cc(Br)c(=O)[nH]c2=O)CC1O (centres undefined) on ACHN?
> 100 µM (inactive)

Any idea what GI50 came out for C[C@]12C/C(=C/O)C(=O)C(O)=C1CC[C@@H]1C2CC[C@@]2(C)C1CC[C@@H]2O (some centres undefined) on ACHN?
27.8 µM (inactive)

====

Tested on: SF-268
experimentalProtocol: NCI tumour cell line growth inhibition, 48 h
The source made the active and inactive calls. Rule as the data show it: active = GI50 up to about 1.1 µM and inactive = higher.
GI50 values for the compounds below.

Observe how each entry below is paired with its result.
compound	target	GI50
COc1ccc(N2C(=O)[C@@H](N=[N+]=[N-])[C@@H]2[C@H]2COC(C)(C)O2)cc1	SF-268	> 100 µM (inactive)
C[n+]1c2ccccc2c(CNC(CS)C(=O)O)c2ccccc21 (stereo unspecified)	SF-268	20.4 µM (inactive)
CC1=C/C(=N\NC(N)=S)C(C(O)(C(F)(F)F)C(F)(F)F)C(C)(C)C1 (stereo unspecified)	SF-268	> 10 µM (inactive)
N#Cc1c2ccc([N+](=O)[O-])cc2c(=O)n2c1sc1ccccc12	SF-268	56.2 µM (inactive)
NNC(=S)N/N=C(\CCCC(=O)NCCc1ccccc1)CC(=O)c1ccccc1	SF-268	> 100 µM (inactive)
Cc1ccc(Nc2n[nH]c(=S)s2)cc1C	SF-268	> 100 µM (inactive)
CC1(c2nc3ccccc3[nH]2)CCC(C(=O)O)C(C)(C)O1 (stereo unspecified)	SF-268	> 100 µM (inactive)
COc1nc2ccc(COc3ccc(C(=O)NC(CCC(=O)O)C(=O)O)cc3)cc2nc1OC (stereo unspecified)	SF-268	> 10 µM (inactive)

Please give the measured GI50 for this compound: "CC1=N/C(=C\c2cccc3ccccc23)C(=O)O1"
> 100 µM (inactive)

Please give the measured GI50 for this compound: "N=C(CC/C(N)=N/O)NO"
> 100 µM (inactive)

Please give the measured GI50 for this compound: "Cc1cc2c(cc1Cl)SC(NNC(=O)c1ccco1)=NS2(=O)=O"
> 10 µM (inactive)
